Listed below: pEC50 values for each entry.
- Tested on: H4
- procedure_summary: Induction of autophagy in human H4 cells expressing LC3 using DAPI staining after 4 hrs by fluorescence microscopic analysis
- Format: functional, cell-based
- experimental_context: H4, 4 h
pEC50: −log10 of the molar value.
measured_quantity: pEC50

In [3]: df
Out[3]:
                                    compound  subject_of_test  value_operator  experimental_value
 0  Cc1cccc(C(CCCN2CCC(O)(c3ccc(Cl)c(C(F)(F)F)c3)CC2)c2cccc(C)c2)c1               H4               =                6.54
 1  O=C1NCN(c2ccccc2)C12CCN(CCCC(O)c1ccc(F)cc1)CC2 (configuration not stated)               H4               <                4.30
 2  O=C1NCN(c2ccccc2)C12CCN(CCCC(c1ccccc1)c1ccccc1)CC2               H4               =                4.46
 3  Cc1ccc(C(CCCN2CCC(O)(c3ccc(Cl)c(C(F)(F)F)c3)CC2)c2ccc(C)cc2)cc1               H4               =                6.54
 4      Fc1ccc(C(CCCN2CCOCC2)c2ccc(F)cc2)cc1               H4               <                4.30
 5  O=C1NCN(c2ccccc2)C12CCN(CCCC(c1ccc(C(F)(F)F)cc1)c1ccc(C(F)(F)F)cc1)CC2               H4               =                5.43
 6  OC1(c2ccc(C(F)(F)F)c(Cl)c2)CCN(C2c3ccccc3Sc3ccccc32)CC1               H4               =                4.84
 7  CC(=O)NC1(c2ccc(C)cc2)CCN(CCCC(c2ccc(F)cc2)c2ccc(F)cc2)CC1               H4               =                5.66
 8  O=C1NCN(c2ccccc2)C12CCN(C1c3ccccc3CCc3ccccc31)CC2               H4               =                5.29
 9  COc1ccc(C(CCCN2CCC(O)(c3ccc(Cl)c(C(F)(F)F)c3)CC2)c2ccc(OC)cc2)cc1               H4               =                5.92
10  O=C1NCN(c2ccccc2)C12CCN(CCCC(c1ccc(F)cc1)c1ccc(F)cc1)CC2 [FLUSPIRILENE]               H4               =                5.62
11  O=C(CCC(c1ccc(F)cc1)c1ccc(F)cc1)N1CCC(O)(c2ccc(Cl)c(C(F)(F)F)c2)CC1               H4               <                4.30
12  OC1(c2ccc(Cl)c(C(F)(F)F)c2)CCN(CCCCC(c2ccc(F)cc2)c2ccc(F)cc2)CC1               H4               =                5.57
13  OC1(c2ccc(C(F)(F)F)c(Cl)c2)CCN(C2c3ccccc3CCc3ccccc32)CC1               H4               =                5.59
14  O=C1NCN(c2ccccc2)C12CCN(CC/C=C\c1ccc(F)cc1)CC2               H4               <                4.30
15  OC1(c2ccc(Cl)c(C(F)(F)F)c2)CCN(CCCC(c2cccc(F)c2)c2cccc(F)c2)CC1               H4               =                5.66
16   CN1CCN(CCCC(c2ccc(F)cc2)c2ccc(F)cc2)CC1               H4               <                4.30
17  OC1(c2ccc(Cl)c(C(F)(F)F)c2)CCN(CCC=C(c2ccc(F)cc2)c2ccc(F)cc2)CC1               H4               =                5.37
18  OC1(c2ccc(Cl)c(C(F)(F)F)c2)CCN(CCCC(c2ccc(OC(F)(F)F)cc2)c2ccc(OC(F)(F)F)cc2)CC1               H4               =                6.01
19  N#CC(CCCN1CCC(O)(c2ccc(Cl)c(C(F)(F)F)c2)CC1)(c1ccccc1)c1ccccc1               H4               =                5.49
20  Cc1ccc(C2(O)CCN(CCCC(c3ccc(F)cc3)c3ccc(F)cc3)CC2)cc1               H4               =                5.19
21  O=C1NCN(c2ccccc2)C12CCN(CCCN(c1ccccc1)c1ccccc1)CC2               H4               =                4.60
22  COc1ccc(C(CCCN2CCC3(CC2)C(=O)NCN3c2ccccc2)c2ccc(OC)cc2)cc1               H4               =                5.34
23  O=C1NCN(c2ccccc2)C12CCN(CCC=C(c1ccc(F)cc1)c1ccc(F)cc1)CC2               H4               =                5.21
24  Cc1ccc(C2=CCN(CCCC(c3ccc(F)cc3)c3ccc(F)cc3)CC2)cc1               H4               <                4.30
25  O=C1NCN(c2ccccc2)C12CCN(C1c3ccccc3Sc3ccccc31)CC2               H4               <                4.30
26  CC(=O)OC1(c2ccc(C)cc2)CCN(CCCC(c2ccc(F)cc2)c2ccc(F)cc2)CC1               H4               =                5.36
27  O=C1NCN(c2ccccc2)C12CCN(CCCC(c1ccc(Cl)cc1)c1ccc(Cl)cc1)CC2               H4               =                5.38
28  O=C1NCN(c2ccccc2)C12CCN(CCCCc1ccc(F)cc1)CC2               H4               <                4.30
29  O=C1NCN(c2ccccc2)C12CCN(CCCCC(c1ccc(F)cc1)c1ccc(F)cc1)CC2               H4               =                5.33
30  OC1(c2ccc(C(F)(F)F)c(Cl)c2)CCN(C2c3ccccc3-c3ccccc32)CC1               H4               =                5.59
31  Cc1ccc(C(CCCN2CCC3(CC2)C(=O)NCN3c2ccccc2)c2ccc(C)cc2)cc1               H4               =                5.51
32  OC1(c2ccc(Cl)c(C(F)(F)F)c2)CCN(CCCC(c2ccc(F)cc2)c2ccc(F)cc2)CC1 [PENFLURIDOL]               H4               =                5.49
33  OC1(c2ccc(Cl)c(C(F)(F)F)c2)CCN(CCCC(c2ccccc2)c2ccccc2)CC1               H4               =                5.29
34  Fc1ccc(C(CCCN2CCN(c3ccc(Cl)cc3)CC2)c2ccc(F)cc2)cc1               H4               <                4.30
35  N#CC(CCCN1CCC2(CC1)C(=O)NCN2c1ccccc1)(c1ccccc1)c1ccccc1               H4               =                4.83
36  OC1(c2ccc(Cl)c(C(F)(F)F)c2)CCN(CCCC(c2ccc(Cl)cc2)c2ccc(Cl)cc2)CC1               H4               =                5.62
